Hey, just so you know, these numbers are from patent US9815850B2.

Settings: male, Sprague-Dawley Crl:CD(SD), in vivo
Would you mind telling me the reported Rat unbound CL of each entry?
One number for each entry, in mL/min/kg.

[
  {
    "Compound": "C[C@H]1Oc2cccnc2N(C)C(=O)[C@H]1NC(=O)c1nn(Cc2ccccc2)cc1F",
    "Units Text": "mL/min/kg",
    "Rat unbound CL": 420
  },
  {
    "Compound": "CN1C(=O)[C@@H](NC(=O)c2nnc(Cc3ccccc3)[nH]2)COc2ccccc21 [A, reference compound]",
    "Units Text": "mL/min/kg",
    "Rat unbound CL": 77
  }
]

Q) # query: Rat unbound CL of entry CN1C(=O)[C@@H](NC(=O)c2nnc(Cc3ccccc3)o2)COc2cccnc21
A) 61
